Assay: Culture medium hydrolysis experiment
Type: in vitro ADME
Settings: 1 μM peptide in culture medium, 37° C.; read-out: Half-life of peptides in culture medium
Numbered stars: 1 amine (or outer) side, 2 acyl side, 3 side chain; on linkers, the order of the positions; unused ones are H or OH. Square brackets hold non-standard residues; d marks the D form. Peptide text beside a SMILES is read from it. X1 = C[C@@H](OP(=O)(OCOC(=O)C(C)(C)C)OCOC(=O)C(C)(C)C)[C@H](N[*:1])C(=O)[*:2]; His(π-(CH2)8Ph) = N[C@@H](Cc1cncn1CCCCCCCCc1ccccc1)C(=O)O
Experimental endpoint: half-life at 1 μM (h)
Respond with the bare value in h.

Q) Give the measured half-life at 1 μM of CC(=O)N1CCC[C@H]1C(=O)N[C@@H](CC(C)C)C(=O)N[C@@H](Cc1cncn1CCCCCCCCc1ccccc1)C(=O)N[C@@H](CO)C(=O)N[C@H](C(N)=O)[C@@H](C)OP(=O)(OCOC(=O)C(C)(C)C)OCOC(=O)C(C)(C)C [Compound A5] (Ac-PL[His(π-(CH2)8Ph)]S[X1]-NH2) .
A) 0.537

Q) Next up: CC(=O)N1CCC[C@H]1C(=O)N[C@@H](CC(C)C)C(=O)N[C@@H](Cc1c[n+](CCO)cn1CCCCCCCCc1ccccc1)C(=O)N[C@@H](CO)C(=O)N[C@H](C(N)=O)[C@@H](C)OP(=O)(O)OCOC(=O)C(C)(C)C
A) 6.87

These entries and their values trace back to patent US10047122B2.
